- MEASURED_ON: UniProtKB Q72874
- PROTOCOL_NOTES: Inhibitory activity against HIV protease
pIC50: −log10 of the molar value.
Label condition met when pIC50 is at or above 7; otherwise label condition not met.

O=C(O)CCCC1(c2ccccc2)CC(=O)C(SCCc2ccccc2)=C(O)O1 (stereo unspecified): condition not met
CCC(C)c1ccccc1SC1=C(O)OC(c2ccccc2)(c2ccccc2)CC1=O (stereo unspecified): condition met
CC(C)c1ccc(C(C)(C)C)c(SC2=C(O)OC(CCc3ccccc3)(c3ccccc3)CC2=O)c1 (stereo unspecified): condition met
O=C1CC2(CCCc3ccccc32)OC(O)=C1SCCc1ccccc1 (stereo unspecified): condition not met
CCCC1(c2ccccc2)CC(=O)C(SCc2ccccc2)=C(O)O1 (stereo unspecified): condition not met

Could you tell me if the measured pIC50 of CCC(C)c1ccccc1SC1=C(O)OC(CCc2ccccc2)(c2ccccc2)CC1=O (stereo unspecified) reaches 7 or more?
condition met

Same lookup for O=C1CC(CCCCO)(c2ccccc2)OC(O)=C1SCc1ccccc1 (stereo unspecified) , please.
condition not met

Cool, now CCCCC1(c2ccccc2)CC(=O)C(SCCc2ccccc2)=C(O)O1 (stereo unspecified)
condition not met

What do we get for CC(C)(C)c1ccccc1SC1=C(O)OC(c2ccccc2)(c2ccccc2)CC1=O ?
condition met

Follow-up entry: CC(C)c1ccc(C(C)C)c(SC2=C(O)OC(CCc3ccccc3)(c3ccccc3)CC2=O)c1 (stereo unspecified)
condition met

Would you kindly repeat that for CC(C)CC1(c2ccccc2)CC(=O)C(SCCc2ccccc2)=C(O)O1 (stereo unspecified) ?
condition not met

Quick one: CC(C)CCCC1(c2ccccc2)CC(=O)C(SCc2ccccc2)=C(O)O1 (stereo unspecified)
condition not met

// next record Cc1ccc(C(C)C)c(SC2=C(O)OC(c3ccccc3)(c3ccccc3)CC2=O)c1
condition met

Try O=C(O)CCCCC1(c2ccccc2)CC(=O)C(SCCc2ccccc2)=C(O)O1 (stereo unspecified) next.
condition met

###

- MEASURED_ON: UniProt:Q72874
- PROTOCOL_NOTES: Inhibitory activity against HIV protease at pH 4.7
Please use T for IC50 under 10 nM and F for everything else, ties included.

Examples from the recorded data:
Cc1ccc(C(C)C)c(SC2=C(O)OC(CCc3ccccc3)(c3ccccc3)CC2=O)c1 (configuration not stated): T
CC(C)(C)c1ccccc1Sc1c(O)cc(-c2ccccc2)oc1=O: F
CC(C)(C)c1ccccc1SC1=C(O)OC(CCc2ccccc2)(c2ccccc2)CC1=O (configuration not stated): T
Cc1ccc(C(C)(C)C)c(Sc2c(O)cc(-c3ccccc3)oc2=O)c1: F

Here's an entry: Cc1ccc(C(C)C)c(Sc2c(O)cc(-c3ccccc3)oc2=O)c1 . Is its IC50 below 10 nM?
F

Another: CC(C)c1ccccc1SC1=C(O)OC(CCc2ccccc2)(c2ccccc2)CC1=O (configuration not stated)
F

###

- MEASURED_ON: Human immunodeficiency virus type 1 protease (Human immunodeficiency virus 1, UniProt Q72874)
- PROTOCOL_NOTES: Inhibitory activity against HIV protease at pH 6.2
pIC50: −log10 of the molar value.
Decision: pIC50 >= 7 yields fulfilled, all other cases yield not fulfilled.

Cc1ccc(C(C)(C)C)c(SC2=C(O)OC(CCc3ccccc3)(c3ccccc3)CC2=O)c1 (stereo not given): fulfilled

Please find the next compound below.
Record Cc1ccc(C(C)(C)C)c(Sc2c(O)cc(-c3ccccc3)oc2=O)c1 ; criterion: pIC50 no lower than 7. Met?
not fulfilled

###

- MEASURED_ON: UniProtKB Q72874
- PROTOCOL_NOTES: Inhibitory activity against HIV protease
TEST_READOUT: IC50 (µM)
Answer format: numeric, µM implied, no suffix.

O=C1CC(CCc2ccccc2)(c2ccccc2)OC(O)=C1Sc1ccccc1C1CCCCC1 (stereo unspecified): 0.032
CN(CC1(c2ccccc2)CC(=O)C(SCCc2ccccc2)=C(O)O1)c1ccccc1 (stereo unspecified): 2.28
O=C1CC(c2ccccc2)OC(O)=C1SCc1ccccc1 (stereo unspecified): 8.9
O=C1CC(CCc2ccccc2)(c2ccccc2)OC(O)=C1SCc1ccccc1 (stereo unspecified): 0.06
O=C1CC(c2ccccc2)(c2ccccc2)OC(O)=C1SCc1ccccc1: 0.262
O=C(O)CCC1(c2ccccc2)CC(=O)C(SCCc2ccccc2)=C(O)O1 (stereo unspecified): 1.2
CC(C)CC1(c2ccccc2)CC(=O)C(SCc2ccccc2)=C(O)O1 (stereo unspecified): 0.44
O=C1CC(CCc2ccccc2)(c2ccccc2)OC(O)=C1Sc1ccccc1 (stereo unspecified): 0.13
Cc1ccccc1SC1=C(O)OC(c2ccccc2)(c2ccccc2)CC1=O: 0.388
O=C1CC2(CCCc3ccccc32)OC(O)=C1SCc1ccccc1 (stereo unspecified): 2.3

Please turn your attention to the following entry.
I have this compound here, O=C1CC(c2ccccc2)(c2ccncc2)OC(O)=C1SCCc1ccccc1 (stereo unspecified) , and I need its recorded IC50.
0.79

###

This section presents compounds with their documented IC50 values.
- MEASURED_ON: Human immunodeficiency virus type 1 protease (Human immunodeficiency virus 1)
- PROTOCOL_NOTES: Inhibitory activity against HIV protease
Return type: number; implicit unit nM.

Worked examples follow.
CCCCCC1(c2ccccc2)CC(=O)C(SCCc2ccccc2)=C(O)O1 (configuration not stated): 84
CCCCCC1(c2ccccc2)CC(=O)C(SCc2ccccc2)=C(O)O1 (stereo in doubt; 4b): 124
O=C1CC(c2ccccc2)(c2ccccc2)OC(O)=C1Sc1ccccc1: 110
Cc1ccc(C(C)C)c(SC2=C(O)O[C@@](CCc3ccccc3)(c3ccccc3)CC2=O)c1: 130
O=C1CC(CC2CCCCC2)(c2ccccc2)OC(O)=C1SCc1ccccc1 (configuration not stated): 137
O=C1CC(CC2CCCC2)(c2ccccc2)OC(O)=C1SCc1ccccc1 (configuration not stated): 88

Could you share what IC50 was measured for CCCCCCC1(c2ccccc2)CC(=O)C(SCCc2ccccc2)=C(O)O1 (configuration not stated) , tested on Human immunodeficiency virus type 1 protease (Human immunodeficiency virus 1)?
112

###

- MEASURED_ON: Human immunodeficiency virus type 1 protease (Human immunodeficiency virus 1, UniProt Q72874)
- PROTOCOL_NOTES: Inhibitory activity against HIV protease at pH 6.2
TEST_READOUT: pIC50
Kindly note that pIC50 refers to -log10 of the concentration in mol/L and answer with the value alone.

// below: answered compounds
Cc1ccc(C(C)C)c(SC2=C(O)OC(CCc3ccccc3)(c3ccccc3)CC2=O)c1 (stereo not drawn): 7.10
CC(C)(C)c1ccccc1SC1=C(O)OC(CCc2ccccc2)(c2ccccc2)CC1=O (stereo not drawn): 6.98

Fill in: pIC50 of CC(C)c1ccccc1SC1=C(O)OC(CCc2ccccc2)(c2ccccc2)CC1=O (stereo not drawn) is ___
7.01
